tested_system: CYP3A4 (Homo sapiens)
Construct: purchased Invitrogen Corporation (Vivid CYP450 Screening Kit)
Sequence (P08684 whole entry): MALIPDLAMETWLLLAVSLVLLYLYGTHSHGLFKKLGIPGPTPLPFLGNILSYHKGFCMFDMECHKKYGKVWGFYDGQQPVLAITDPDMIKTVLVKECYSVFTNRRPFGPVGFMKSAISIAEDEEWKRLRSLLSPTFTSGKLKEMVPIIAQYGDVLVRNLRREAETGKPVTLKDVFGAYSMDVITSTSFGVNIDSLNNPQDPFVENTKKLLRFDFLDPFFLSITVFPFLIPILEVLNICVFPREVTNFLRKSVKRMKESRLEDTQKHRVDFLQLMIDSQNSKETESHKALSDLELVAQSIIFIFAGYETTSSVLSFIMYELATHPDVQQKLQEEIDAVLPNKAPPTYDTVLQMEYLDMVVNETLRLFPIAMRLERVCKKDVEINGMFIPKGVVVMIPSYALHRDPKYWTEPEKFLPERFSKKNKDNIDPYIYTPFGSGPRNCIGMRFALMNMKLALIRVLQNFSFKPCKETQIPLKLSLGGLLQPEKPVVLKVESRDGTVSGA
method_description: Cytochrome P450 (CYP450) inhibition assay, fluorescence-based
Assay type: in vitro ADME
measurement_conditions: recombinant CYP3A4 (P450 Baculosomes), probe Vivid substrate (fluorogenic)
endpoint_name: inhibition at 10 µM

compound="CN(C)CCOc1ccc(CN2C(=O)C3(COc4cc5c(cc43)OCCO5)c3ccccc32)cc1 (centres unmarked) [Example 13.4]" observed="> 50%"
compound="NC(=O)COc1ccc(CN2C(=O)C3(COc4cc5c(cc43)CCO5)c3ccccc32)cc1 (centres unmarked) [Example 13.1]" observed="< 50%"
compound="CC(N)COc1ccc2c(c1)OCC21C(=O)N(C[C@H]2CCCO2)c2ccccc21.Cl (some centres unmarked) [Example 20, hydrochloride]" observed="< 50%"
compound="COCCOc1ccc(CN2C(=O)C3(COc4cc5c(cc43)OCCO5)c3ccccc32)cc1 (centres unmarked) [Example 13.3]" observed="> 50%"
compound="O=C(O)COc1ccc(CN2C(=O)C3(COc4cc5c(cc43)CCO5)c3ccccc32)cc1 (centres unmarked) [Example 15.1]" observed="< 50%"
compound="CCOC(=O)COc1cccc(CN2C(=O)C3(COc4cc5c(cc43)CCO5)c3ccccc32)c1 (centres unmarked) [Example 14]" observed="> 50%"
compound="CS(=O)(=O)N(c1ccc2c(c1)OCC21C(=O)N(C[C@H]2CCCO2)c2ccccc21)S(C)(=O)=O (some centres unmarked) [Example 18]" observed="< 50%"
compound="O=C1N(C[C@H]2CCCO2)c2ccccc2C12COc1cc3c(cc12)C(=NO)CO3 (some centres unmarked) [Example 24]" observed="> 50%"

---

Tested on: sodium channel
method_description: Guanidine influx assay
Type: cell-based, human or rat
measurement_conditions: known cell line that expresses a sodium channel; read-out: IC50 Activity Level
Catalogue of IC50 readings, one per entry.
endpoint_name: IC50

molecule="CC(C)[Si](Oc1ccc2c(c1)OCC21C(=O)N(C[C@H]2CCCO2)c2ccccc21)(C(C)C)C(C)C (stereo partly shown)" observed="100 to 1000 nM"
molecule="CC(=O)N1CCC[C@H]1CN1C(=O)C2(COc3cc4c(cc32)CCO4)c2ccccc21 (stereo partly shown)" observed="1000 to 10000 nM"
molecule="NC(=O)COc1cccc(CN2C(=O)C3(COc4cc5c(cc43)CCO5)c3ccccc32)c1 (stereo not shown)" observed="1 to 100 nM"
molecule="CN(C)CCOc1ccc2c(c1)OCC21C(=O)N(C[C@H]2CCCO2)c2ccccc21 (stereo partly shown)" observed="1000 to 10000 nM"
molecule="CCOC(=O)COc1cccc(CN2C(=O)C3(COc4cc5c(cc43)CCO5)c3ccccc32)c1 (stereo not shown)" observed="100 to 1000 nM"
molecule="O=C(O)COc1cccc(CN2C(=O)C3(COc4cc5c(cc43)CCO5)c3ccccc32)c1 (stereo not shown)" observed="1000 to 10000 nM"
molecule="CNC(=O)COc1cccc(CN2C(=O)C3(COc4cc5c(cc43)CCO5)c3ccccc32)c1 (stereo not shown)" observed="1 to 100 nM"
molecule="NC(=O)COc1ccc(CN2C(=O)C3(COc4cc5c(cc43)OCCO5)c3ccccc32)cc1 (stereo not shown)" observed="1 to 100 nM"
molecule="CN(C)CCOc1ccc(CN2C(=O)C3(COc4cc5c(cc43)OCCO5)c3ccccc32)cc1 (stereo not shown)" observed="100 to 1000 nM"
molecule="CN(C)CCOc1ccc2c(c1)OCC21C(=O)Nc2ccccc21 (stereo not shown)" observed="≥ 10000 nM"
molecule="CC(N)COc1ccc2c(c1)OCC21C(=O)N(C[C@H]2CCCO2)c2ccccc21.Cl (stereo partly shown) [Example 20, hydrochloride]" observed="1000 to 10000 nM"
molecule="O=C1N(C[C@H]2CCCO2)c2ccccc2C12COc1cc3c(cc12)C(=NO)CO3 (stereo partly shown)" observed="1000 to 10000 nM"
molecule="CS(=O)(=O)N(c1ccc2c(c1)OCC21C(=O)N(C[C@H]2CCCO2)c2ccccc21)S(C)(=O)=O (stereo partly shown)" observed="1000 to 10000 nM"
molecule="N/C(CN1C(=O)C2(COc3cc4c(cc32)OCO4)c2ccccc21)=N\\O (stereo not shown)" observed="100 to 1000 nM"
molecule="N/C(CN1C(=O)C2(COc3cc4c(cc32)OCO4)c2c(Cl)cccc21)=N\\OC(=O)C1CC1 (stereo not shown)" observed="100 to 1000 nM"
molecule="CCOC(=O)COc1ccc(CN2C(=O)C3(COc4cc5c(cc43)OCCO5)c3ccccc32)cc1 (stereo not shown)" observed="1 to 100 nM"
